# target of assay: caspase 6 (Homo sapiens)
# Sequence (P55212 24-179 limits assumed): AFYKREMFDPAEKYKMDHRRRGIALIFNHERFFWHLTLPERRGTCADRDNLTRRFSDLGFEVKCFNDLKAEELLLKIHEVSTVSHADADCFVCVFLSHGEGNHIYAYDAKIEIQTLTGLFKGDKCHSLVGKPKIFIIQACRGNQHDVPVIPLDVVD
# Sequence (P55212 194-293 limits assumed): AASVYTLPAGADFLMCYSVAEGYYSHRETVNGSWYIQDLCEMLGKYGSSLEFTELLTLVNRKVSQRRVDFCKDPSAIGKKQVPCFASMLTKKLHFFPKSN
# method description: biochemical
# condition: IC50 against caspase 6
pIC50: −log10 of the molar value.
measure name: pIC50

May I ask what pIC50 has been recorded for CC1=NN(c2ccccc2)C(=O)C1=NNc1c(Br)cc(Br)cc1Br [compound 1] ?
~2.30

###

# target of assay: caspase 2 (Homo sapiens)
# Sequence (P42575 170-325 limits assumed): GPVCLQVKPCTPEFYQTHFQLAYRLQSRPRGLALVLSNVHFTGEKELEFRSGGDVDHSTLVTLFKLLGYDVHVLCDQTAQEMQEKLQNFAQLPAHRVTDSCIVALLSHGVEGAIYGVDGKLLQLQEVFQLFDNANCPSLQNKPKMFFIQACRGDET
# Sequence (P42575 348-452 limits assumed): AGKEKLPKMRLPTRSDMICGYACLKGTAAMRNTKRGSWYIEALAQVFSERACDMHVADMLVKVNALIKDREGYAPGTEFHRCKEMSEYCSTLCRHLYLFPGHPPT
# method description: biochemical
# condition: IC50 against the three caspases (range stated for all)
pIC50: −log10 of the molar value.
measure name: pIC50

Given CC1=NN(c2ccccc2)C(=O)C1=NNc1c(Br)cc(Br)cc1Br , state its recorded pIC50.
2.30 to 3.30

###

# target of assay: caspase 2 (Homo sapiens, UniProt P42575)
# method description: biochemical
# condition: IC50 against caspase 2
pIC50: −log10 of the molar value.
measure name: pIC50

Item: CC1=NN(c2ccccc2)C(=O)C1=NNc1c(Br)cc(Br)cc1Br [compound 1] Test system: caspase 2 (Homo sapiens, UniProt P42575) Read-out: pIC50 Value: ?
~2.30

###

# target of assay: UniProt P49662
# Sequence (P49662 81-270 limits assumed): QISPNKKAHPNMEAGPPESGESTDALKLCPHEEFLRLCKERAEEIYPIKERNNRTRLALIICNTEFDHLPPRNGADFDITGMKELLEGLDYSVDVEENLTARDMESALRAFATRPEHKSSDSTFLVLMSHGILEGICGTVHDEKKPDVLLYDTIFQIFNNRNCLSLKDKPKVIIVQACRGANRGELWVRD
# Sequence (P49662 290-377 limits assumed): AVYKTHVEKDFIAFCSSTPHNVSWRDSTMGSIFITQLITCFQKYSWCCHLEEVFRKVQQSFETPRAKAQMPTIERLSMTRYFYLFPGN
# method description: biochemical
# condition: IC50 against the three caspases (range stated for all)
measure name: IC50

API: value(readout= IC50, system= UniProt P49662, query= CC1=NN(c2ccccc2)C(=O)C1=NNc1c(Br)cc(Br)cc1Br )
500 to 5000 µM

###

# target of assay: caspase 6 (Homo sapiens)
# method description: biochemical
# condition: IC50 against the three caspases (range stated for all)
measure name: IC50

Which IC50 is reported for this compound? CC1=NN(c2ccccc2)C(=O)C1=NNc1c(Br)cc(Br)cc1Br
0.5 to 5 mM
